# TEST_DETAILS: Wnt/beta-catenin pathway activators, primary screen, cell-based, plate reader, single point (AID 743398);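 further: 0% = neutral control wells and 100% = positive control wells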
# ASSAY_CONDITIONS: Wnt/beta-catenin reporter cell assay, activator, at 9.35 µM, hits give high values
Among all 300,000 compounds or so, about 3,600 (1.2%) were called active. The full list was thinned out, with actives kept by preference.
PROPERTY_LABEL: activation (%)
Numbers only; they are read as %.

Input line: Given Cc1cc(NC(=O)COc2ccccc2C#N)no1 , respond with its activation.
Output line: 19

Input line: Return reported activation. Input compound: CCOc1ccc2nc(NC(=O)c3cc([N+](=O)[O-])ccc3N3CCOCC3)sc2c1
Output line: -0.111

Input line: Name the recorded activation of the item CCc1nc2ccc(C(=O)NC3CCN(Cc4ccccc4)CC3)cn2c1N(CC)CCOC in your answer.
Output line: -0.563

Input line: Return reported activation. Input compound: COc1cc(/C=N\Nc2nc(-c3cccs3)c(NC(C)=O)s2)ccc1O
Output line: 7.87

Input line: Give recorded activation. COc1ccccc1-c1ccc([C@@H]2C[C@H]3[C@H](CON3C)CN2S(=O)(=O)c2cc(Cl)cc(Cl)c2)cc1
Output line: -3.43

Input line: Give reported activation value for CC(=O)Nc1ccc(C(=O)NNC(=O)CCCCC(=O)NNC(=O)c2ccc(NC(C)=O)cc2)cc1
Output line: 1.15

Input line: Give the measured activation for Cn1c(SCc2c(F)cccc2Cl)nnc1-c1cnccn1
Output line: 41.7

Input line: Identify measured activation corresponding to O=C(Nc1nc2ccc([N+](=O)[O-])cc2s1)c1ccncc1
Output line: 34.4

Input line: Assign activation to the following record: Cc1ccc(-c2ccc(CN3C(C(C)C)C(=O)N(Cc4cn(CCC5OCCO5)nn4)CCS3(=O)=O)cc2)cc1 (stereo unspecified)
Output line: -0.655

Input line: Indicate its recorded activation; the compound in question is COc1ccc(CN2CCC(C)(Oc3cccc(F)c3)C2)c2ccccc12 (stereo unspecified)
Output line: -4.58

Input line: Check the records and state activation for Cc1ccc(CSc2nnc(-c3cnccn3)n2C)cc1
Output line: 2.04

Input line: Recall and state the measured activation for O=C(N/N=C/c1ccco1)c1csc2c1CCCC2 .
Output line: 14.7

Input line: Give me measured activation, please, for this compound: CN1CCCc2nc(-c3ccccc3)ccc21
Output line: 28.7

Input line: Provide activation value for the following compound: Cc1nc(NC(=O)C(C)(C)C)sc1[N+](=O)[O-]
Output line: -2.63

Input line: Using the record for Oc1ccc(-n2nnnc2SCc2c(F)cccc2Cl)cc1 , state its measured activation.
Output line: -2.71

Input line: Specify activation for O=C(c1ccc(N2CCOCC2)c([N+](=O)[O-])c1)N1CCN(c2ccccc2F)CC1 and stop.
Output line: -6.11

----------
# TEST_DETAILS: Wnt/beta-catenin pathway activators, primary screen, cell-based, plate reader, single point (AID 743398);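 further: 0% = neutral control wells and 100% = positive control wells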
# ASSAY_CONDITIONS: Wnt/beta-catenin reporter cell assay, activator, at 9.35 µM, hits give high values
Screen size: about 300,000 compounds; about 3,600 (1.2%) were called active. Many of the other results were omitted from the sample, so actives are more common in it than they were.
Each item that follows carries a reported activation.

Worked examples follow.
| COMPOUND | activation |
| --- | --- |
| COc1ccc(C2=NN(C(=O)c3ccccc3C(=O)O)C(c3ccccc3O)C2)cc1 (configuration not stated) | 42.7% (active) |
| COc1ccc(C2=NN(C(C)=O)C(c3ccccc3)C2)cc1 (configuration not stated) | 3.24% (inactive) |
| COC(=O)[C@@]12C[C@@H](CC(=O)N3CCC(c4ccccc4)CC3)C(=O)N(Cc3ccccc3)C1=CCC(C)(C)C2 | -3.58% (inactive) |
| C#CCN(C[C@@H]1[C@@H](OC(=O)NC2CC2)[C@@H](OC(=O)NC2CC2)Cn2c(=O)ccc(=O)n21)S(=O)(=O)c1ccc(C)cc1 | -2.83% (inactive) |

Input line: Identify measured activation corresponding to O=C(CN1CCN(c2ccc(Cl)cc2)CC1)c1ccccc1
Output line: 0.814% (inactive)

Input line: In one line, give reported activation of the entry COc1ccc(C2=CN(Cc3ccccc3)C(c3ccc(OC)cc3)CC2=O)cc1 (configuration not stated) .
Output line: -3.3% (inactive)

Input line: Annotate the compound COc1cccc(NC(=O)C2(C)CCN2C(=O)CCC2CCCC2)c1 (configuration not stated) with its measured activation.
Output line: -2.67% (inactive)

----------
# TEST_DETAILS: Wnt/beta-catenin pathway activators, primary screen, cell-based, plate reader, single point (AID 743398);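 further: 0% = neutral control wells and 100% = positive control wells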
# ASSAY_CONDITIONS: Wnt/beta-catenin reporter cell assay, activator, at 9.35 µM
Hit rate of the full screen: of about 300,000 compounds, about 3,600 (1.2%) were called active. Cut-off read from the data, not from the text of the source: active = activation above about 30% (passing the limit was not always enough); inconclusive = no clear call, values can overlap the other calls. For the sample, actives were picked, then their nearest neighbours and some compounds at random.
Allowed answers: active, inactive

| COMPOUND | CLASS_NAME |
| --- | --- |
| O=C(Nc1ccccc1F)c1ccc2c(c1)OCO2 | active |

Input line: Recorded test outcome, item COc1cccc(OCC(=O)Nc2ccccc2C(N)=O)c1
Output line: active

Input line: What did this assay record as the result for Cn1c(=NC(=O)c2cnccn2)sc2ccccc21 ?
Output line: active

Input line: I would be grateful if you could indicate the recorded call for CC(=O)Nc1ccc(C(=O)/C=C/c2ccc[nH]2)cc1 .
Output line: active

Input line: Assay outcome for COC(=O)c1ccc(OC(=O)c2cnccn2)cc1 : what was it?
Output line: inactive

----------
# TEST_DETAILS: Wnt/beta-catenin pathway activators, primary screen, cell-based, plate reader, single point (AID 743398);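 further: 0% = neutral control wells and 100% = positive control wells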
# ASSAY_CONDITIONS: Wnt/beta-catenin reporter cell assay, activator, at 9.35 µM, hits give high values
Out of some 300,000 compounds screened, about 3,600 (1.2%) were called active. The entries come from a sample that favours actives as a whole.
PROPERTY_LABEL: activation (%)
Return type: number; implicit unit %.

| MOLECULE | activation (%) |
| --- | --- |
| CC(=O)Nc1ccc(C=CC(=O)c2ccc([N+](=O)[O-])cc2)cc1 | -6.15 |
| COc1cc(C(O)c2nc3ccccc3n2C)cc(OC)c1OC (stereo not given) | -0.72 |

Input line: Give the reported value of activation for this record: Cc1nc2ccc(NC(=O)C3CCCCC3)cc2s1
Output line: 15.2

Input line: Quick one: give measured activation for Nc1[nH]c(C(=O)c2ccc(Br)cc2)c(-c2ccc3c(c2)OCO3)c1C(=O)NCCc1c[nH]c2ccccc12
Output line: 0.212

Input line: # return recorded activation for entry CC(=O)Nc1cnc(-c2ccc(O)cc2C)cn1
Output line: -0.836

Input line: Supply reported activation belonging to this molecule: COC(=O)[C@H]1C[C@H](OC(=O)NCc2ccccc2)[C@@]2(O)CN(S(=O)(=O)c3ccc(C)cc3)CC2[C@H]1C(=O)OC (stereo not given in full)
Output line: 0.0463

Input line: State its activation: COc1ccc(C(=O)Nc2nc(-c3ccc(OC)cc3)c(-c3ccc([N+](=O)[O-])cc3)s2)cc1
Output line: -2.22

----------
# TEST_DETAILS: Wnt/beta-catenin pathway activators, primary screen, cell-based, plate reader, single point (AID 743398);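 further: 0% = neutral control wells and 100% = positive control wells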
# ASSAY_CONDITIONS: Wnt/beta-catenin reporter cell assay, activator, at 9.35 µM, hits give high values
Out of some 300,000 compounds screened, about 3,600 (1.2%) were called active. This is one part of a sample in which actives are shown more often than they occur.
PROPERTY_LABEL: activation (%)
Report as a plain number; the unit % is understood.

These recorded examples may help you get a feel for the data.
| COMPOUND | activation / % |
| --- | --- |
| COc1cccc(-c2cnc3c(NC(C)=O)cc(-c4cc(F)ccc4OC)cn23)c1 | -0.939 |
| CC(NC(=O)CSc1nc2c(cc1C#N)CN(C)CC2)c1ccccc1 (stereo not drawn) | -0.152 |

Input line: Provide measured activation value, entry: CCOc1cccc2cc(C(=O)OCC(=O)Nc3c(C)cccc3CC)c(=O)oc12
Output line: 8.56
